Reported protein stability index by item:
B1: PTPLAD1 (parent)
chain: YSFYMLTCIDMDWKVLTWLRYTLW

# Variants of: B1
# assay.procedure: protein stability index of a GFP-peptide fusion (GPS, HEK-293T) (PSI 1-6); higher = more stable;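 note: lentivirally expressed fusions sorted by FACS into six bins by GFP to DsRed ratio, PSI derived from sequencing read proportions per bin multiplied by bin number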
# measurement.conditions: c terminus: a fixed tail appended
recorded.metric: protein stability index

>>> df
   change  test_result
0    L16P         2.32
1    D10N          2.6
2    W24P         2.58
3    L23E         2.74
4    D12H         1.75
5     M5V         2.62
6     M5D         2.49
7    M11R         2.86
8    L16A         3.49
9    Y21L          3.2
